Assay: Antiproliferative activity against ConA-stimulated mouse splenocytes at 30 uM after 72 hrs by MTT assay
Type: functional
Conditions: Splenocyte
attribute_measured: inhibition at 30 µM
Lab note: write values as number then unit, every time.

**Q:** If you can, please state the reported inhibition at 30 µM value of "Cc1cc(C)nc(NC(=O)CCc2c[nH]c3ccccc23)c1" .
**A:** 22%

**Q:** // repeat for "Cn1cc(CCC(=O)NCc2cccnc2)c2cc(Cl)ccc21" and report
**A:** 22%

**Q:** // repeat for "O=C(CCc1cn(Cc2ccccc2)c2ccccc12)NCc1cccnc1" and report
**A:** 20%

**Q:** // repeat for "O=C(CCc1c[nH]c2ccccc12)NCc1cccnc1" and report
**A:** 38%

**Q:** // repeat for "O=C(CCc1cn(Cc2ccc(Cl)cc2)c2ccccc12)Nc1ccncc1" and report
**A:** 19%

**Q:** // repeat for "O=C(CCc1cn(Cc2ccc(Cl)cc2)c2ccccc12)NCc1cccnc1" and report
**A:** 27%
